PROCEDURE DETAILS: Primary qHTS for inhibitors of nuclear receptor binding SET domain protein 2 (NSD2) in an RCH-ACV wild type WT cells (2C) (AID 1645877); note: nearly all actives have a fitted effect of over 70% in size
CONDITION DETAILS: RCH-ACV (leukaemia line) NSD2 WT (2C) viability, CellTiter-Glo, 72 h; series mostly up to 44.9 µM
Records with an inconclusive call do not appear. The source made the active and inactive calls. Calls come from the whole dose curve; as a rule, active = well fitted inhibition curve with a large enough effect; inconclusive = small, poorly fitted or top-dose-only effect; inactive = no such curve, though single readings can be large or run the other way.
Write down the outcome that applies. Available outcomes: Y for active, N for inactive

Exercise: What is the recorded call for this compound in the test? O=C(O)CCCCN(CCc1ccccc1OCc1ccc(CCc2ccccc2)cc1)Cc1ccc(C(=O)O)cc1
Key: N

Exercise: Record request — test call for O=C1Cc2cc(C(=O)NC3C[C@H]4CC[C@@H](C3)N4S(=O)(=O)CC3CCN(CCCC(F)(F)F)CC3)c(Cl)cc2N1 (some centres undefined)
Key: N

Exercise: Status in this test for CC1(C)S[C@H]2[C@H](NC(=O)[C@@H](N)c3ccc(O)cc3)C(=O)N2[C@H]1C(=O)O ?
Key: N

Exercise: // param item: Cn1cc(-c2nc(N[C@@H]3CCCC[C@@H]3N)c(F)c3c2C(=O)NC3)cn1 ; yields the recorded call
Key: Y

Exercise: // outcome(item) with item = Cc1[nH]nc2ncc(C(=O)N3CCC[C@H]3c3ccc(Cl)cc3)cc12
Key: Y

Exercise: Hello, I am checking results. What call was entered for Cc1c[nH]c2nc(Nc3ccc(N4CCN(C)CC4)c(F)c3)nc(-c3cccc(CC#N)c3)c12 ?
Key: Y

Exercise: What is the recorded call for this compound in the test? Cc1c(CN2CCN(C(=O)[C@H](C)O)CC2)sc2c(N3CCOCC3)nc(-c3cnc(N)nc3)nc12
Key: Y

Exercise: Hello, I am checking results. What call was entered for N[C@@H]1CN(c2c(F)cc3c(=O)c(C(=O)O)cn([C@@H]4C[C@@H]4F)c3c2Cl)CC12CC2 ?
Key: N

Exercise: Check the results log: what was the call for CCn1c(=O)c(-c2ccc(-c3cncc(C)n3)cc2Cl)cc2cnc(NCCC3CCN(C)CC3)nc21 ?
Key: Y

----------
PROCEDURE DETAILS: AP1 Signaling Pathway (AID 357);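 note: ME-180 reporter cells stimulated with EGF at its EC50 level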
CONDITION DETAILS: ME-180 (cervical carcinoma) AP-1-bla reporter, EGF-induced, beta-lactamase ratio, 5 h; at 7.69 µM (top of the series) unless noted
Records with an inconclusive call do not appear. The source made the active and inactive calls. Calls come from the whole dose curve; as a rule, active = well fitted curve in either direction with a large enough effect (not every such curve was filed as active); inconclusive = small, poorly fitted or top-dose-only effect, or another doubt; inactive = flat fitted curve, though single readings scatter.
Write down the outcome that applies. Available outcomes: active, inactive

Exercise: How did this test come out for CN(Cc1ccco1)c1ncncc1-c1cccc(C#N)c1 ?
Key: inactive

Exercise: Query: recorded result category for CC(=O)NCCNc1ncnc2ccc(-c3c(C)noc3C)cc12 in this test
Key: inactive

Exercise: Answer briefly: the call reported for O=C(c1ccncc1)N1CCC2(CC1)CN(c1ccccc1)C2 in this assay.
Key: inactive

Exercise: Recorded test outcome, item COc1ncc2nc(-c3ccc(F)cc3)c(=O)n(C3CC3)c2n1
Key: inactive

Exercise: Field: outcome | Entry: COc1ccc(NC(=O)N2CCC3(CC2)CCN(C(=O)c2cnccn2)CC3)cc1
Key: inactive

Exercise: Please let me know the test result on file for CC(=O)N1CCC2(CC1)CN(c1ccccc1)C2 .
Key: inactive

Exercise: Dear all, I need the recorded test outcome for COCC(=O)N1CCC[C@@]2(CCN(Cc3ccc(C#N)cc3)C2)C1 , thank you.
Key: inactive

Exercise: I'd appreciate the recorded outcome for N#CCCn1c(=O)c(-c2cccc(C#N)c2)nc2cnc(N3CCOCC3)nc21 from this test.
Key: inactive

Exercise: Please indicate how the test categorized COCCNc1ncnc2ccc(-c3ccccc3C)cc12 .
Key: inactive

Exercise: Recorded test outcome, item CN(C)c1ncc2ncc(=O)n(C3CC3)c2n1
Key: inactive

Exercise: Hey, what did the test say about Cc1ccccc1-c1nccc(NCc2cccs2)n1 ?
Key: inactive

Exercise: Test call for this compound, please: CN(C)c1ccc(-c2cc(Nc3ccc(F)cc3)ncn2)cc1
Key: inactive

Exercise: Lab log entry: CN(C)Cc1ccccc1-c1nccc(N(C)C)n1 — outcome as called in the assay?
Key: inactive

Exercise: Tell me the recorded outcome of this test for COc1ccccc1CNc1ccnc(-c2ccoc2)n1 .
Key: inactive

Exercise: Per the assay record, what outcome was assigned to Fc1ccc(Nc2ccnc(-c3ccccc3C(F)(F)F)n2)cc1 ?
Key: inactive

Exercise: Entry N#Cc1cccc(NC(=O)N2CC[C@@]3(CCCNC3)C2)c1 : call = ?
Key: inactive

Exercise: Field: outcome | Entry: CN(C)c1ccc(-c2nc(NCCN3CCOCC3)c3ccccc3n2)cc1
Key: inactive

Exercise: Which outcome was assigned to COc1cccc(-c2cncnc2NCc2ccccc2)c1 in this test?
Key: inactive

Exercise: What did this assay record as the result for COC(=O)N1CCC2(CC1)CN(C(c1ccccc1)c1ccccc1)C2 ?
Key: inactive

Exercise: Query: recorded result category for O=c1c(-c2cc(F)cc(F)c2)nc2cnc(N3CCNCC3)nc2n1Cc1cccs1 in this test
Key: active

Exercise: Recorded test call requested for CN1CCN(c2cc(-c3ccoc3)ncn2)CC1
Key: inactive

Exercise: I would be grateful if you could indicate the recorded call for Cn1cc(-c2nc3cncnc3n(-c3ccccc3)c2=O)c2ccccc21 .
Key: inactive

Exercise: Record request — test call for COc1ccc(NC(=O)N2CCCC3(CCN(C(=O)c4csnn4)CC3)C2)cc1
Key: inactive

Exercise: For O=C(c1cnccn1)N1CCC[C@@]2(CCN(Cc3nccs3)C2)C1 , which call appears in the assay record?
Key: inactive

Exercise: Tell me the assay call for N#Cc1cccc(NC(=O)N2CCC3(CC2)CCN(C(=O)c2csnn2)CC3)c1 please.
Key: inactive

Exercise: Returns: the outcome recorded for Cc1nc2cnc(N3CCN(C)CC3)nc2n(Cc2cccs2)c1=O in this assay.
Key: inactive

Exercise: # lookup: test call for O=C(c1cnccn1)N1CCC[C@@]2(CCN(c3ncccn3)C2)C1
Key: inactive

Exercise: Field: outcome | Entry: Cn1cc(-c2nc3cncnc3n(Cc3ccc(F)cc3)c2=O)c2ccccc21
Key: inactive

Exercise: Tell me the recorded outcome of this test for CN1CCN(c2cc(-c3ccc(N(C)C)cc3)ncn2)CC1 .
Key: inactive

Exercise: For this compound, state the assay outcome: COc1ccccc1-c1nccc(-n2ccnc2)n1
Key: inactive
